- systemTested: UniProt P04049
measurementLabel: pIC50
One number for each entry, as −log10 of the molar value.

Entry `Cc1cc(Oc2cc(NC(=O)C3CC3)ncn2)ccc1NC(=O)Nc1ccc(Cl)c(C(F)(F)F)c1` , system UniProt P04049: what pIC50 was measured?
7.51

###

- systemTested: CDKL3 (h) (Homo sapiens)
- Construct: purchased Eurofins (KinaseProfiler service)
- methodDescription: Kinase IC50 (Eurofins KinaseProfiler)
- Format: biochemical
pIC50: −log10 of the molar value.
measurementLabel: pIC50

Entry `Cc1cc(Oc2cc(NC(=O)C3CC3)ncn2)ccc1NC(=O)Nc1ccc(Cl)c(C(F)(F)F)c1` , system CDKL3 (h) (Homo sapiens): what pIC50 was measured?
< 5.00

###

- systemTested: UniProt:P42685
measurementLabel: pIC50
One number for each entry, as −log10 of the molar value.

Would you mind telling me what pIC50 value was observed for Cc1cc(Oc2cc(NC(=O)C3CC3)ncn2)ccc1NC(=O)Nc1ccc(Cl)c(C(F)(F)F)c1 [CBT-102] ?
7.28

###

- systemTested: Plk1 (h) (Homo sapiens)
- Sequence (P53350 whole entry): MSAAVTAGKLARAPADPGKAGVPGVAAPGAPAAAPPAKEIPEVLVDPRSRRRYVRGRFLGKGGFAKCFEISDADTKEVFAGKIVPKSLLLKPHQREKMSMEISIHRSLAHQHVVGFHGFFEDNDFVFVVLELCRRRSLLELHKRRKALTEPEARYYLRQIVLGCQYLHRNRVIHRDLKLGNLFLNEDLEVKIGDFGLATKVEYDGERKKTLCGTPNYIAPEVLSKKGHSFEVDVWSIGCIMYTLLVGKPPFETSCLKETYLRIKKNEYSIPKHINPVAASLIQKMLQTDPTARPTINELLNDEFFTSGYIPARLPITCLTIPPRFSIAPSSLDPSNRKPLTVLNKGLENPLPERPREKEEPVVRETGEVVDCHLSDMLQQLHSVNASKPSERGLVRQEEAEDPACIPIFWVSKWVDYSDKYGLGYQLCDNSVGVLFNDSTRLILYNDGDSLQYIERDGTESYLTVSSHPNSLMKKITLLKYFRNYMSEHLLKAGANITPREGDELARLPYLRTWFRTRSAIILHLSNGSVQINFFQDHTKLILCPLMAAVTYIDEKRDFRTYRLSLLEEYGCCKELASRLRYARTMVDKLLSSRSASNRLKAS
pIC50: −log10 of the molar value.
measurementLabel: pIC50

Would you mind telling me what pIC50 value was observed for `Cc1cc(Oc2cc(NC(=O)C3CC3)ncn2)ccc1NC(=O)Nc1ccc(Cl)c(C(F)(F)F)c1` ?
< 5.00

###

- systemTested: PDGFRβ (h) (Homo sapiens, UniProt P09619)
- Sequence (P09619 33-1106): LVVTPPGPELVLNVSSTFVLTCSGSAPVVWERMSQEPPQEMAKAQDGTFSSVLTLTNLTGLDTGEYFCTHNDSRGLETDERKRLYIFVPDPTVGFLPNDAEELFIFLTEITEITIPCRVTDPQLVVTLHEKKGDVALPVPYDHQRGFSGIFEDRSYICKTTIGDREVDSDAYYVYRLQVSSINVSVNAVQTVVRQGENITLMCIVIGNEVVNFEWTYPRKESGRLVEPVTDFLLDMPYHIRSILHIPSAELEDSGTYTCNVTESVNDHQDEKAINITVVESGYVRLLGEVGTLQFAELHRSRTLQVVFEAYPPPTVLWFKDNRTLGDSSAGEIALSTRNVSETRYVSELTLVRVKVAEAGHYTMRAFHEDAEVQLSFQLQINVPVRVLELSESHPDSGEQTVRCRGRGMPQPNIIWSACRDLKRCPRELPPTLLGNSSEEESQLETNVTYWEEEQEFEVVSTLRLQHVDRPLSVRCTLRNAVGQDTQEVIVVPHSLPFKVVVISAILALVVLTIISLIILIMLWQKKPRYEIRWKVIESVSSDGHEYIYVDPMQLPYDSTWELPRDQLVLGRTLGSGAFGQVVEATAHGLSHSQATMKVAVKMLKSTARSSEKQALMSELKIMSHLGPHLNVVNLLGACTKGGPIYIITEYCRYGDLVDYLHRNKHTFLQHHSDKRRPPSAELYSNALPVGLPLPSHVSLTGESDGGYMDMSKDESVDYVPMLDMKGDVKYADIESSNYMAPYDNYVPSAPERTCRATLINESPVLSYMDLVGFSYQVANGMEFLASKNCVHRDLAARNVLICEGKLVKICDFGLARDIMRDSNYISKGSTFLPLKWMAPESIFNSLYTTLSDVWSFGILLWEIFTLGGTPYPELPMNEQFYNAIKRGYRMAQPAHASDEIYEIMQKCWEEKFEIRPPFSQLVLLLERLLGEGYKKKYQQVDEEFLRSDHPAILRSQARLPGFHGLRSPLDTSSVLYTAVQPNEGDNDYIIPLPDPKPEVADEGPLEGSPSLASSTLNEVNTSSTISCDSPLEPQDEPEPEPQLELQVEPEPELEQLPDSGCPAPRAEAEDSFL
measurementLabel: pIC50
Give bare numbers, as −log10 of the molar value.

Would you mind telling me what pIC50 value was observed for `Cc1cc(Oc2cc(NC(=O)C3CC3)ncn2)ccc1NC(=O)Nc1ccc(Cl)c(C(F)(F)F)c1` ?
5.88

###

Target protein (sequence): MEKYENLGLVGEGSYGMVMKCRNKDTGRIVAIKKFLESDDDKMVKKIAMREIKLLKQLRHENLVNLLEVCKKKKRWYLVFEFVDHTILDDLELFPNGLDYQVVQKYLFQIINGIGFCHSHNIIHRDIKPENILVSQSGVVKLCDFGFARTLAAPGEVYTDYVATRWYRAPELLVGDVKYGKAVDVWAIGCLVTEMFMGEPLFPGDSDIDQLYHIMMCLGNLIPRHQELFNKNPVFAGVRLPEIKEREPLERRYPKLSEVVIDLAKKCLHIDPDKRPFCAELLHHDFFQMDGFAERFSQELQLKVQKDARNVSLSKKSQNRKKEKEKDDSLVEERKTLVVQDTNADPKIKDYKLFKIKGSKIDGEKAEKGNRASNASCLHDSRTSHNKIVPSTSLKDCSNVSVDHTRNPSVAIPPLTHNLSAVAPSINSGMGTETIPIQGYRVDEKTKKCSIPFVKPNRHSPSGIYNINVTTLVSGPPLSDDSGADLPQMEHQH
measurementLabel: pIC50
Answers are plain numbers, as −log10 of the molar value.

Would you mind telling me what pIC50 value was observed for Cc1cc(Oc2cc(NC(=O)C3CC3)ncn2)ccc1NC(=O)Nc1ccc(Cl)c(C(F)(F)F)c1 [CBT-102] ?
7.43

###

- systemTested: FGFR1 (h) (Homo sapiens, UniProt P11362)
- Sequence (P11362 22-822): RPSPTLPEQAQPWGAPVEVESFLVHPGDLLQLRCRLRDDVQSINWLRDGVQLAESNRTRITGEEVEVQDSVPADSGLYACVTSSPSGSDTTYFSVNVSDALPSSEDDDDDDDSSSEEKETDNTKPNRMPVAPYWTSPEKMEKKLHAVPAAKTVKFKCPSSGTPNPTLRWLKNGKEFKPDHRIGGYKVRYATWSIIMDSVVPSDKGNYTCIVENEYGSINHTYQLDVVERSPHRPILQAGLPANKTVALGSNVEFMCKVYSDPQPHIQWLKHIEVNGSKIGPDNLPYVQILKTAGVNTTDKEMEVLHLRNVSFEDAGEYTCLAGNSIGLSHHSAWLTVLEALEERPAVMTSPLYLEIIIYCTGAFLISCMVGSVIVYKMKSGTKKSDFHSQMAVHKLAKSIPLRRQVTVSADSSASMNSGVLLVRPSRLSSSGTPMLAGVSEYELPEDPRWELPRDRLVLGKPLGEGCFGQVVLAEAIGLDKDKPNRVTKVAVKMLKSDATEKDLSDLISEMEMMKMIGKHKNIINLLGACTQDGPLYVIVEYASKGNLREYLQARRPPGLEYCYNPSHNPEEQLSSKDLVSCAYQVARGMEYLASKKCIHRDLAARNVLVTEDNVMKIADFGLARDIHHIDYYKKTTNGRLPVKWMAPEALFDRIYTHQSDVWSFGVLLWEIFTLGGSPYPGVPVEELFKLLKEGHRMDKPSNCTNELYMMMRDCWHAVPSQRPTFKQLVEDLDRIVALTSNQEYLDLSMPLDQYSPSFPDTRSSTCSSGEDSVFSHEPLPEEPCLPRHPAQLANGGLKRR
measurementLabel: pIC50
One number for each entry, as −log10 of the molar value.

Entry `Cc1cc(Oc2cc(NC(=O)C3CC3)ncn2)ccc1NC(=O)Nc1ccc(Cl)c(C(F)(F)F)c1` , system FGFR1 (h) (Homo sapiens, UniProt P11362): what pIC50 was measured?
6.39

###

- systemTested: CDK6/cyclinD3 (h) (Homo sapiens, UniProt Q00534)
- methodDescription: Kinase IC50 (Eurofins KinaseProfiler)
measurementLabel: IC50

Would you mind telling me what IC50 value was observed for `Cc1cc(Oc2cc(NC(=O)C3CC3)ncn2)ccc1NC(=O)Nc1ccc(Cl)c(C(F)(F)F)c1` ?
> 10 µM

###

- systemTested: B-Raf (h) (Homo sapiens, UniProt P15056)
measurementLabel: IC50 (µM)
Answers are plain numbers, in µM.

Would you mind telling me what IC50 value was observed for `Cc1cc(Oc2cc(NC(=O)C3CC3)ncn2)ccc1NC(=O)Nc1ccc(Cl)c(C(F)(F)F)c1` ?
0.348

###

Target chain: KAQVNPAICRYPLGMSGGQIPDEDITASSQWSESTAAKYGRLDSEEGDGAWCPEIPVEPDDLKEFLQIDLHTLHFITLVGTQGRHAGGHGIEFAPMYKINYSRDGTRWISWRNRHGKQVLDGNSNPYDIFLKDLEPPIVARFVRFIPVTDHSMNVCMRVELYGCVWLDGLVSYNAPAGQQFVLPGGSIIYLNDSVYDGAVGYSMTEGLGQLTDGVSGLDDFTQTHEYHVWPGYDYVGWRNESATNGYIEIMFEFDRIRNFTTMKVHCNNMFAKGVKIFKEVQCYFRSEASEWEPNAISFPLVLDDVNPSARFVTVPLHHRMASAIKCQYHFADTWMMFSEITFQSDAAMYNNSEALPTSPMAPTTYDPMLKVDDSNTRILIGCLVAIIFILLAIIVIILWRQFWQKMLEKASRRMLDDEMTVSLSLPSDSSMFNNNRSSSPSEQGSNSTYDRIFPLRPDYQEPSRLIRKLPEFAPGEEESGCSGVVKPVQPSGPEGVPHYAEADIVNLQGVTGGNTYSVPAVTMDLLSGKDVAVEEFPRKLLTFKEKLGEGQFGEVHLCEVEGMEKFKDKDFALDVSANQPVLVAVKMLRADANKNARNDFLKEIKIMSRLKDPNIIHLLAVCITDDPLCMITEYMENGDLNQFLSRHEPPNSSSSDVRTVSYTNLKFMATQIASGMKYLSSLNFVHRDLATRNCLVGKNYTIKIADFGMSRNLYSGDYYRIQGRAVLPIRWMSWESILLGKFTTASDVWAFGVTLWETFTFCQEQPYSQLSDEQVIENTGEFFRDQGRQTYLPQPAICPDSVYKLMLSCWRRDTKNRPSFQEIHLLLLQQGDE
measurementLabel: IC50 (nM)
One number for each entry, in nM.

Would you mind telling me what IC50 value was observed for `Cc1cc(Oc2cc(NC(=O)C3CC3)ncn2)ccc1NC(=O)Nc1ccc(Cl)c(C(F)(F)F)c1` ?
263

###

- systemTested: PDGFRα (V561D) (h) (Homo sapiens, UniProt P16234, V561D)
- Construct: purchased Eurofins (KinaseProfiler service)
- Sequence (P16234 24-1089 V561D): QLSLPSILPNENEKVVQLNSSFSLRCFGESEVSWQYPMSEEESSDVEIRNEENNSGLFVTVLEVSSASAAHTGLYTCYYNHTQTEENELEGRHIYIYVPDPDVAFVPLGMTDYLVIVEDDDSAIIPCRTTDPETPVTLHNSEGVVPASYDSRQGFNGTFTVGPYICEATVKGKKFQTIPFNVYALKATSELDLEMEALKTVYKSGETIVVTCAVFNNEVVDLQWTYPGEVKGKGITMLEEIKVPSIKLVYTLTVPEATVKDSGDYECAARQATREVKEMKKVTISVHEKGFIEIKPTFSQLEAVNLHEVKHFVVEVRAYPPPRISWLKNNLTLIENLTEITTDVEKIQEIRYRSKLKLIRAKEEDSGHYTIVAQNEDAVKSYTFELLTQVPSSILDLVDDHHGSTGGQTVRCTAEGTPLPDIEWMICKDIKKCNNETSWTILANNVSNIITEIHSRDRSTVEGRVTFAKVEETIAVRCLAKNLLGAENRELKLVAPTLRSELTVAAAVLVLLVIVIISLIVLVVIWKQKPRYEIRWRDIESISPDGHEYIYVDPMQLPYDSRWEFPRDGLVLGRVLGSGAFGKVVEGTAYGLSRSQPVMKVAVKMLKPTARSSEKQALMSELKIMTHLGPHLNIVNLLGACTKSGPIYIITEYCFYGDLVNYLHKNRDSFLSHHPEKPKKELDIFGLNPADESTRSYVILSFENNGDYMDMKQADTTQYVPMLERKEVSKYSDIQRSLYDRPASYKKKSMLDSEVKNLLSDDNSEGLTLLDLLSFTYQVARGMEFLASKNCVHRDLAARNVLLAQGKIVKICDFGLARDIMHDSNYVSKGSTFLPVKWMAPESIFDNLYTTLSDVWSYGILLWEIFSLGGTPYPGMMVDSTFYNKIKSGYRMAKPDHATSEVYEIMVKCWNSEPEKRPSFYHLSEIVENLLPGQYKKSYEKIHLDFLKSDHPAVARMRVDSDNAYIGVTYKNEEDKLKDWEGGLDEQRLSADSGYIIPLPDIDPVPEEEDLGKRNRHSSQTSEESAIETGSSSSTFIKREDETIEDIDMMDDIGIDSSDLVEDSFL
- methodDescription: Kinase IC50 (Eurofins KinaseProfiler)
- Format: biochemical
measurementLabel: IC50 (nM)
Numbers only, in nM.

Would you mind telling me what IC50 value was observed for `Cc1cc(Oc2cc(NC(=O)C3CC3)ncn2)ccc1NC(=O)Nc1ccc(Cl)c(C(F)(F)F)c1` ?
28

###

- systemTested: Ret (h) (Homo sapiens, UniProt P07949)
- Sequence (P07949 29-1114): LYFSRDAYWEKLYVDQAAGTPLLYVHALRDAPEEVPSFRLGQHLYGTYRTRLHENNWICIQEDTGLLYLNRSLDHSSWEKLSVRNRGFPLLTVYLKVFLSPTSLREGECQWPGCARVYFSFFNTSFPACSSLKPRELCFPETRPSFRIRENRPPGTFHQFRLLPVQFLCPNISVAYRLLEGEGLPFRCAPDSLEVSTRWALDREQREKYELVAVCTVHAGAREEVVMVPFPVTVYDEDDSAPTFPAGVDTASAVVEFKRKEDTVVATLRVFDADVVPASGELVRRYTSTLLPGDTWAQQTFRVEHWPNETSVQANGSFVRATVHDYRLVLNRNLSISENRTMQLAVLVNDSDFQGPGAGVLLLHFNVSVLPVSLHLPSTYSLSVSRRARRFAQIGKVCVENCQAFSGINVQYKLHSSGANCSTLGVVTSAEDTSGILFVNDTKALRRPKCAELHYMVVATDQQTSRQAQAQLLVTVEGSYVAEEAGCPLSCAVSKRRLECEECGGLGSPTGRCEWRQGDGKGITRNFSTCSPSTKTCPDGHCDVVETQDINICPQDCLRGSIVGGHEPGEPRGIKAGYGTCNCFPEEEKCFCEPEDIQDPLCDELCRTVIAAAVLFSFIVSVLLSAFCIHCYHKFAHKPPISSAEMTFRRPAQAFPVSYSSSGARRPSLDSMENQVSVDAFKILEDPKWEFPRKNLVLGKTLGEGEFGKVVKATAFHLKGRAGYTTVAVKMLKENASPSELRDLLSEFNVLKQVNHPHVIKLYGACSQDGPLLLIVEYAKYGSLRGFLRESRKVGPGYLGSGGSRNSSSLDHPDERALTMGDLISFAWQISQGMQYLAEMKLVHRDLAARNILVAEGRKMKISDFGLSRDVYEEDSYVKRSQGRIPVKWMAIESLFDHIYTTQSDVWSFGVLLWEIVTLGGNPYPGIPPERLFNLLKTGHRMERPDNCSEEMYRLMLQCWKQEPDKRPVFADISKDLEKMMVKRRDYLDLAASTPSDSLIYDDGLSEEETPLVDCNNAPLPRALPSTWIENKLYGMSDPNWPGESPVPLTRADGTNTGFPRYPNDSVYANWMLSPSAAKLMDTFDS
measurementLabel: IC50 (nM)
Numbers only, in nM.

Would you mind telling me what IC50 value was observed for `Cc1cc(Oc2cc(NC(=O)C3CC3)ncn2)ccc1NC(=O)Nc1ccc(Cl)c(C(F)(F)F)c1` ?
43

###

- systemTested: PKBα (h) (Homo sapiens, UniProt P31749)
pIC50: −log10 of the molar value.
measurementLabel: pIC50

Entry `Cc1cc(Oc2cc(NC(=O)C3CC3)ncn2)ccc1NC(=O)Nc1ccc(Cl)c(C(F)(F)F)c1` , system PKBα (h) (Homo sapiens, UniProt P31749): what pIC50 was measured?
< 5.00

Where do the numbers come from? From patent US20220088016A1.
